Measured activity, negative = inhibition, listed per entry for reference.
Biological target: Cytochrome P450 1A2 (Homo sapiens) (UniProt P05177)
Sequence (P05177 whole entry, looked up): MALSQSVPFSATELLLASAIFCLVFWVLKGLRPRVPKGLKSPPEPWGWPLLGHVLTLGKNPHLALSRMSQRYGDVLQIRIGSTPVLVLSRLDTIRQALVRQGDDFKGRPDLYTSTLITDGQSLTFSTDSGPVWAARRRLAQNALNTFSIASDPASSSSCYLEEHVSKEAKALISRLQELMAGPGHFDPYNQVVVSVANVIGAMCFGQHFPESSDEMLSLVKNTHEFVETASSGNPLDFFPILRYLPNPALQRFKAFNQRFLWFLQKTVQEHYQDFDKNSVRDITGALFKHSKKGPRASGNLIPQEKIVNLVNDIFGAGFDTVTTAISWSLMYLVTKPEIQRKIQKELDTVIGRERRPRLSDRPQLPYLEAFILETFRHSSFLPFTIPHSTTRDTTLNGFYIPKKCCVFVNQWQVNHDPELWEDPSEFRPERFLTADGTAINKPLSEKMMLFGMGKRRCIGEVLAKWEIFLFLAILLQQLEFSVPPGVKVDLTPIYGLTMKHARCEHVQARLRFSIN
Test: Cytochrome panel assay with activity outcomes; for activity, negative = inhibition: % is set by controls: 0 for no effect and ±100 for the full control effect
Conditions: recombinant CYP, pro-luciferin dealkylation, luminescence, p450-cyp1a2; series mostly up to 57.1 µM
Method: The P450 gene superfamily is involved in the metabolism and clearance of xenobiotics. This assay used various human CYP P450 isozymes to measure the dealkylation of various pro-luciferin substrates to luciferin. The luciferin is then measured by luminescence after the addition of a luciferase detection reagent. […] Inhibitors and some substrates limit the production of luciferin, and decrease measured luminescence. […] 8, Detection, 1 sec, ViewLux luminescent read […]
Hit rate of the full screen: of about 16,000 compounds, about 5,700 (36%) were called active. Roughly 24% stayed inconclusive and do not appear here. The list shows a part of the results.

Record Smiles | activity, negative = inhibition
O=C(O)c1cccc(OCCO)c1 | -14.7% [at 11.4 µM] (inactive)
CO[C@@H]1/C=C\O[C@@]2(C)Oc3c(C)c(O)c4c(c3C2=O)C(=N[C@H]2CC[C@H](O)O[C@@H]2C)C=C(NC(=O)/C(C)=C\C(=O)[C@@H]2C[C@@H]2[C@@H](O)[C@H](C)[C@@H](O)[C@H](C)[C@H](OC(C)=O)[C@@H]1C)C4=O | -9.54% [at 11.4 µM] (inactive)
C[C@H](c1ccccc1)N1C(=O)[C@H]2[C@@H]3[C@H](O)[C@H](O)CC(=O)[C@H]3CC[C@H]2C1=O | -6.45% [at 11.4 µM] (inactive)

Now look at this one.
Record summary for Cn1c([N+](=O)[O-])cnc1CN1CCN(CCO)CC1 : reported activity, negative = inhibition = 9.16% [at 2.29 µM] (inactive)

###

biological target: Cytochrome P450 1A2 (Homo sapiens) (UniProt P05177); experiment: Cytochrome panel assay with activity outcomes; settings: recombinant CYP, pro-luciferin dealkylation, luminescence, p450-cyp1a2; series mostly up to 57.1 µM
In all, about 16,000 compounds went through this assay and about 5,700 (36%) were called active. Roughly 24% stayed inconclusive and do not appear here. The call rests on the fitted dose curve; in most records, active means well fitted curve in the direction sought with a large enough effect; inconclusive means small, poorly fitted or top-dose-only effect, or effect the other way; inactive means no such curve, though single readings can be large or run the other way. Some of the results follow.
API: response.call in active, inactive

Record Smiles | Assigned Class
N[C@@H](C(=O)O)c1ccc(C(=O)O)cc1 | inactive

Query block: Assay outcome for c1cc(CSSCc2ccncc2)ccn1 : what was it?
Result block: active

Query block: Assay outcome for CC(=O)OCc1c(C(F)(F)F)nn(C)c1Sc1ccccc1 : what was it?
Result block: active

Query block: Assay outcome for COC(Cn1c(C)c(C(C)=O)c(C(C)=O)c1C)OC : what was it?
Result block: inactive

Query block: Assay outcome for CC(=O)c1[nH]c(C)c(C(C)=O)c1C : what was it?
Result block: active

Query block: Assay outcome for COc1ccc2cc3[n+](cc2c1OC)CCc1cc2c(cc1-3)OCO2 : what was it?
Result block: active

Query block: Assay outcome for CCSC1=C(C#N)C2(CCCCC2)C(C#N)=C(N)N1 : what was it?
Result block: active

Query block: Assay outcome for CNc1cc(-c2ccccc2C(F)(F)F)ncn1 : what was it?
Result block: active

Query block: Assay outcome for CN(N=O)c1ccc(/C=C\c2ccnc3ccccc23)cc1 : what was it?
Result block: active

Query block: Assay outcome for CNc1ncncc1-c1ccccc1C(F)(F)F : what was it?
Result block: inactive

Query block: Assay outcome for N#Cc1c(-c2cccs2)nc(SCC(=O)c2cccs2)[nH]c1=O : what was it?
Result block: active

Query block: Assay outcome for FC(F)(F)c1ccccc1-c1cc(NCc2ccccc2)ncn1 : what was it?
Result block: active

###

biological target: Cytochrome P450 1A2 (Homo sapiens); assay: Cytochrome panel assay with activity outcomes; conditions: recombinant CYP, pro-luciferin dealkylation, luminescence, p450-cyp1a2; series mostly up to 57.1 µM
Screen size: about 16,000 compounds; about 5,700 (36%) were called active. Inconclusive results (about 24%) are left out. The call rests on the fitted dose curve; in most records, active means well fitted curve in the direction sought with a large enough effect; inconclusive means small, poorly fitted or top-dose-only effect, or effect the other way; inactive means no such curve, though single readings can be large or run the other way. The list shows a part of the results.
API: response.call in 1 = active, -1 = inactive

Record Smiles | Target Desc | Assigned Class
Cn1nc(C(=O)NC2CCCCC2)c2ccccc2c1=O | Cytochrome P450 1A2 (Homo sapiens) | 1

Now for a further molecule.
Query block: Assay outcome for O=C(CCN1CCN(CC(=O)Nc2ccccc2Cl)CC1)Nc1ccccc1F : what was it?
Result block: -1

###

target: Cytochrome P450 1A2 (Homo sapiens) (UniProt P05177); test: Cytochrome panel assay with activity outcomes; conditions: recombinant CYP, pro-luciferin dealkylation, luminescence, p450-cyp1a2; series mostly up to 57.1 µM
In all, about 16,000 compounds went through this assay and about 5,700 (36%) were called active. Another 24% or so got no clear call; they are omitted. Calls come from the whole dose curve; as a rule, active = well fitted curve in the direction sought with a large enough effect; inconclusive = small, poorly fitted or top-dose-only effect, or effect the other way; inactive = no such curve, though single readings can be large or run the other way. This is one part of the list.
API: response.call in active, inactive

Molecule | Assigned Class
CC(N)=O | inactive
CCOCCCN1C(=O)CN(C2CCCCCC2)C(=O)C1c1ccc(OC)cc1 (centres undefined) | inactive
CCOCCCn1cnc2c([nH]c3cc(OC)ccc32)c1=O | active
Cc1ccc(C)c(S(=O)(=O)NC(CC(C)C)C(=O)O)c1 (centres undefined) | inactive
Cc1cccc(OCCSCc2nc3ccccc3[nH]2)c1 | active

Query block: Assay outcome for COc1ccc(-c2csc(N3C(=N)SCC3=O)n2)cc1 : what was it?
Result block: active

Query block: Assay outcome for CC12CCC(C(=O)Nc3ccccc3Br)(C/C1=N\O)C2(C)C (centres undefined) : what was it?
Result block: inactive

Query block: Assay outcome for COCC(=O)N1CCC2(CC1)CCN(C(=O)Nc1cccc(F)c1)CC2 : what was it?
Result block: inactive

Query block: Assay outcome for CC(C)c1ccccc1-n1c(SCC(=O)N2CCN(c3ccccc3)CC2)nnc1-c1cccnc1 : what was it?
Result block: inactive

Query block: Assay outcome for c1cncc(-c2nc(N3CCNCC3)c3ccccc3n2)c1 : what was it?
Result block: active

Query block: Assay outcome for COc1ccc(-n2c(CNC(=O)c3cc(OC)c(OC)c(OC)c3)n[nH]c2=S)cc1 : what was it?
Result block: inactive

Query block: Assay outcome for O=C(CCN1C(=O)/C(=C/c2cccc(Br)c2)SC1=S)NNC(=O)c1cccnc1 : what was it?
Result block: inactive

Query block: Assay outcome for COc1cc(C=O)ccc1OCCCOc1ccccc1C(=O)O : what was it?
Result block: inactive

Query block: Assay outcome for COc1cccc(-c2nc(NCCNC(C)=O)c3ccccc3n2)c1 : what was it?
Result block: active

Query block: Assay outcome for COc1ccccc1NC(=O)Nc1nc(-c2cccnc2)nc2ccccc12 : what was it?
Result block: active

###

biological target: Cytochrome P450 1A2 (Homo sapiens); test: Cytochrome panel assay with activity outcomes; conditions: recombinant CYP, pro-luciferin dealkylation, luminescence, p450-cyp1a2; series mostly up to 57.1 µM
Screen size: about 16,000 compounds; about 5,700 (36%) were called active. Not shown: some 24% with an inconclusive outcome. Calls come from the whole dose curve; as a rule, active = well fitted curve in the direction sought with a large enough effect; inconclusive = small, poorly fitted or top-dose-only effect, or effect the other way; inactive = no such curve, though single readings can be large or run the other way. The list shows a part of the results.
API: response.call in True (active), False (inactive)

# example entries with known answers
Record Smiles | Assigned Class
c1ccc(-c2nc(CSc3n[nH]c(-c4cccs4)n3)cs2)cc1 | True
CCNc1ncc2nc(C)c(=O)n(Cc3cccs3)c2n1 | True
CCNc1ncc2nc(-c3cccs3)c(=O)n(Cc3cccs3)c2n1 | True
CCNc1ncc2nc(-c3cccs3)c(=O)n(C)c2n1 | True

Query block: Assay outcome for COc1ccc(Nc2ncc3nc(-c4cccs4)c(=O)n(Cc4cccc(OC)c4)c3n2)cc1 : what was it?
Result block: False

Query block: Assay outcome for O=C(c1csnn1)N1CCC2(CCN(Cc3ccccc3)CC2)CC1 : what was it?
Result block: False

###

biological target: Cytochrome P450 1A2 (Homo sapiens) (UniProt P05177); assay: Cytochrome panel assay with activity outcomes; details: recombinant CYP, pro-luciferin dealkylation, luminescence, p450-cyp1a2; series mostly up to 57.1 µM
Out of some 16,000 compounds screened, about 5,700 (36%) were called active. Roughly 24% stayed inconclusive and do not appear here. Calls come from the whole dose curve; as a rule, active = well fitted curve in the direction sought with a large enough effect; inconclusive = small, poorly fitted or top-dose-only effect, or effect the other way; inactive = no such curve, though single readings can be large or run the other way. Some of the results follow.
API: response.call in t (active), f (inactive)

# example entries with known answers
Molecule | Assigned Class
O=C(CCCN1C(=O)c2cccc3cccc(c23)C1=O)N1CCc2ccccc2C1 | t
Clc1ccccc1-c1nc(N/N=C/c2cccnc2)c2ccccc2n1 | t

Query block: Assay outcome for CN(C)CC(O)COc1ccc(C(C)(C)c2ccc(OCC(O)CN(C)C)cc2)cc1 (stereo unspecified) : what was it?
Result block: f

Query block: Assay outcome for O=C(CCCN1C(=O)C2C3C=CC(C3)C2C1=O)N1CCN(c2ccccc2)CC1 (stereo unspecified) : what was it?
Result block: f

Query block: Assay outcome for COc1cccc2cc(NC(=O)C3CCCCC3)c(=O)oc12 : what was it?
Result block: t

Query block: Assay outcome for COc1ccc(NC(=O)CC2C(=O)N(c3cccc(OC)c3)C(=O)N2C2CCCCC2)cc1 (stereo unspecified) : what was it?
Result block: f

Query block: Assay outcome for CCN(C(=O)COc1cc(=O)n(C)c2ccccc12)c1cccc(Cl)c1 : what was it?
Result block: t
